target: human TRPM8 (Homo sapiens (Human), UniProt Q7Z2W7); test: TRPM8 inhibition assay (menthol-induced calcium influx, FDSS); settings: HEK293 cells stably expressing human TRPM8; 100 μmol/L menthol; Fura-2AM calcium signal; read-out: TRPM8 Blocking Test (IC50/nmol/L)
Sequence (Q7Z2W7 whole entry): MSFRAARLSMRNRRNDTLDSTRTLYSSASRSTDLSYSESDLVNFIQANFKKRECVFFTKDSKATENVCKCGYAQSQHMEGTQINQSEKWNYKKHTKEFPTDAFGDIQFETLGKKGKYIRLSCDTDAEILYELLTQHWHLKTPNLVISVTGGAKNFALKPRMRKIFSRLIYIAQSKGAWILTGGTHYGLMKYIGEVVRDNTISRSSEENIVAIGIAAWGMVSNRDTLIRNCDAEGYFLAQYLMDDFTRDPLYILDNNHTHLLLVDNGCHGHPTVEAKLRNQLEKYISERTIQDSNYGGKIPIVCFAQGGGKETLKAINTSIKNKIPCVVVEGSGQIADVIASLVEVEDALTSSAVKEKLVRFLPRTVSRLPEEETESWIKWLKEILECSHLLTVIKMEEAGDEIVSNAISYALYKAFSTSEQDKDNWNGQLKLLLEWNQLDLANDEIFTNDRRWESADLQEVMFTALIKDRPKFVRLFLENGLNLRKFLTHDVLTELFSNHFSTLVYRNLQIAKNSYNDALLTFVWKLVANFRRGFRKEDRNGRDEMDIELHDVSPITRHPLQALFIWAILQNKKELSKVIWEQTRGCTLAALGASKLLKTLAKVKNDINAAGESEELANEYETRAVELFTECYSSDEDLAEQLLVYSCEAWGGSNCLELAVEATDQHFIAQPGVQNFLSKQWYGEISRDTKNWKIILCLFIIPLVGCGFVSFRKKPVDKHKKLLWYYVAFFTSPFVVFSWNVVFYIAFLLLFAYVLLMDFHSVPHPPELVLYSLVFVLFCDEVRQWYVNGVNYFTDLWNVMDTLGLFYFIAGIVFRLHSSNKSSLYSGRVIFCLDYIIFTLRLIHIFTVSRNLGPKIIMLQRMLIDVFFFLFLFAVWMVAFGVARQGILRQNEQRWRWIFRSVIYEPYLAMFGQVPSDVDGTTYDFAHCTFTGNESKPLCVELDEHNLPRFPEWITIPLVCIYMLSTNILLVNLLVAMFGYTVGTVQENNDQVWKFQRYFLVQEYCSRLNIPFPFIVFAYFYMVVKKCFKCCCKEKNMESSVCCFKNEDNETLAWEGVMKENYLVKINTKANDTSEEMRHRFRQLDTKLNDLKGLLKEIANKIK
In this section, each of the compounds is paired with its reported pIC50.
Bear in mind: pIC50 is minus log10 of a mol/L concentration; give just that figure.

COMPOUND: O=S(=O)(c1ccc(-c2nnn[nH]2)cc1)N(Cc1ccc(OC(F)(F)F)cc1)c1ncc2ccccc2c1C(F)(F)F [Example 15]
pIC50: 8.70
//
COMPOUND: O=C(O)c1ccc(S(=O)(=O)N(Cc2ccc(OC(F)(F)F)cc2)c2ncc3ccccc3c2C2CC2)cc1F [Example 52]
pIC50: 9.00

Query string: So what does the record say about pIC50 for Cc1cc(S(=O)(=O)N(Cc2ccc(C(F)(F)F)cn2)c2ncc3ccccc3c2C2CC2)ccc1C(=O)O [Example 37] ?
Result string: 8.02

Query string: Tell me the measured pIC50 of Cc1n[nH]c(-c2ccc(S(=O)(=O)N(Cc3ccc(OC(F)(F)F)cc3)c3ncc4ccccc4c3C3CC3)cc2)n1 [Example 22] , please.
Result string: 9.22

Query string: Report pIC50 for Cc1cc(S(=O)(=O)N(Cc2ccc(OC(F)(F)F)cc2)c2ncc3ccccc3c2C2CC2)ccc1C(=O)O [Example 36] please.
Result string: 8.85

Query string: If you can, please state the reported pIC50 value of O=c1[nH]c(-c2ccc(S(=O)(=O)N(Cc3ccc(OC(F)(F)F)cc3)c3ncc4ccccc4c3C3CC3)cc2)no1 [Example 7] .
Result string: 9.00

Query string: Tell me the measured pIC50 of Cc1n[nH]c(-c2ccc(S(=O)(=O)N(Cc3ccc(OC(F)(F)F)cc3)c3ncc4ccccc4c3C(F)(F)F)cc2)n1 [Example 21] , please.
Result string: 8.96

Values from patent US9487488B2
